read-out: Interferon-gamma inducible Protein 10 (IP10), CXCL10 (gene 3627); assay: BSK_KF3CT_IP10: BioMAP Diversity Plus: KF3CT Assay for Interferon-gamma inducible Protein 10 (IP10) Biomarker Activity (AID 2283068); conditions: primary human keratinocytes with fibroblasts; actives raise or lower the signal
The source made the active and inactive calls. How the source made its calls: active means hit-call score of the fitted dose curve at least 0.9, where 1 is the maximum; inactive means score below 0.9.
RESULT TYPE: outcome

Field: example entries. Status: answers known.
SMILES REPRESENTATION: CCCc1ccccc1
MEASURED VALUE: inactive
//
SMILES REPRESENTATION: Cn1c(=O)c2[nH]cnc2n(C)c1=O
MEASURED VALUE: inactive
//
SMILES REPRESENTATION: FC(F)=C(F)C(F)(F)C(F)(F)C(F)(F)C(F)(F)C(F)(F)C(F)(F)F
MEASURED VALUE: inactive
//
SMILES REPRESENTATION: CCCCOC(=O)c1ccccc1
MEASURED VALUE: inactive
//
SMILES REPRESENTATION: O=S(=O)(O)c1ccc(N=Nc2c(O)ccc3cc(S(=O)(=O)O)ccc23)cc1
MEASURED VALUE: inactive

Query: Consider the compound c1ccc(C(O[C@@H]2CCCN(CCc3ccc4c(c3)OCO4)C2)c2ccccc2)cc1 and give its measured outcome.
Reply: inactive
